EXPERIMENTAL SYSTEM: Cholesteryl ester transfer protein (Homo sapiens, UniProt P11597)
Sequence (P11597 whole entry): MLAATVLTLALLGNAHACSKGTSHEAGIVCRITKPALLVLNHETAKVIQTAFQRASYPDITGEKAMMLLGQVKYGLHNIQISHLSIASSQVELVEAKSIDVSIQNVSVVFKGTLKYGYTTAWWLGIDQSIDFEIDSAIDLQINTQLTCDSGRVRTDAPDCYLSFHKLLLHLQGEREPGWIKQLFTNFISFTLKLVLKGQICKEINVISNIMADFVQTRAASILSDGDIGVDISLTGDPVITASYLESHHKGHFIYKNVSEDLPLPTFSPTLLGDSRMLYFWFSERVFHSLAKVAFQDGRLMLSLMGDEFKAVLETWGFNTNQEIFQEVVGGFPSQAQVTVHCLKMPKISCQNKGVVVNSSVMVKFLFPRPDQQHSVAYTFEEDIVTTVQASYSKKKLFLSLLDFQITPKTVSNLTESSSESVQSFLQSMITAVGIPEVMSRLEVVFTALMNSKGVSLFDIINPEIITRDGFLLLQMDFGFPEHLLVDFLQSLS
ASSAY METHOD TEXT: Inhibition of full-length human recombinant CETP expressed in CHO cells by BODIPY-CE fluorescence assay
pIC50: −log10 of the molar value.
pIC50 vs 5: at or above is Met, below is Not met.

- COMPOUND STRUCTURE STRING: "O=C(CCN(Cc1ccc(F)cc1)c1ccc(Cl)c(Cl)c1)N1CCOCC1"
  EXPERIMENTAL SYSTEM: "Cholesteryl ester transfer protein (Homo sapiens, UniProt P11597)"
  CATEGORY LABEL: "Not met"
- COMPOUND STRUCTURE STRING: "COc1ccc(N2CCN(C(=O)CCN(Cc3ccc(F)cc3)c3ccc(Cl)c(Cl)c3)CC2)cc1"
  EXPERIMENTAL SYSTEM: "Cholesteryl ester transfer protein (Homo sapiens, UniProt P11597)"
  CATEGORY LABEL: "Met"
- COMPOUND STRUCTURE STRING: "COc1ccc(N2CCN(C(=O)CCN(Cc3ccc(F)cc3)c3cccc(Oc4ccccc4)c3)CC2)cc1"
  EXPERIMENTAL SYSTEM: "Cholesteryl ester transfer protein (Homo sapiens, UniProt P11597)"
  CATEGORY LABEL: "Met"
- COMPOUND STRUCTURE STRING: "CCc1cc(N(CCC(=O)N2CCN(c3ccccc3)CC2)Cc2ccc(F)cc2)ccc1Cl"
  EXPERIMENTAL SYSTEM: "Cholesteryl ester transfer protein (Homo sapiens, UniProt P11597)"
  CATEGORY LABEL: "Not met"

Query: Has CCOC(=O)c1ccc(N2CCN(C(=O)CCN(Cc3ccc(F)cc3)c3ccc(Cl)c(Cl)c3)CC2)cc1 a recorded pIC50 greater than or equal to 5?
Reply: Met
